phosphorylation enrichment for assorted sequences
tgt: Jak2 (UniProt O60674)
Sequence (O60674 whole entry, looked up): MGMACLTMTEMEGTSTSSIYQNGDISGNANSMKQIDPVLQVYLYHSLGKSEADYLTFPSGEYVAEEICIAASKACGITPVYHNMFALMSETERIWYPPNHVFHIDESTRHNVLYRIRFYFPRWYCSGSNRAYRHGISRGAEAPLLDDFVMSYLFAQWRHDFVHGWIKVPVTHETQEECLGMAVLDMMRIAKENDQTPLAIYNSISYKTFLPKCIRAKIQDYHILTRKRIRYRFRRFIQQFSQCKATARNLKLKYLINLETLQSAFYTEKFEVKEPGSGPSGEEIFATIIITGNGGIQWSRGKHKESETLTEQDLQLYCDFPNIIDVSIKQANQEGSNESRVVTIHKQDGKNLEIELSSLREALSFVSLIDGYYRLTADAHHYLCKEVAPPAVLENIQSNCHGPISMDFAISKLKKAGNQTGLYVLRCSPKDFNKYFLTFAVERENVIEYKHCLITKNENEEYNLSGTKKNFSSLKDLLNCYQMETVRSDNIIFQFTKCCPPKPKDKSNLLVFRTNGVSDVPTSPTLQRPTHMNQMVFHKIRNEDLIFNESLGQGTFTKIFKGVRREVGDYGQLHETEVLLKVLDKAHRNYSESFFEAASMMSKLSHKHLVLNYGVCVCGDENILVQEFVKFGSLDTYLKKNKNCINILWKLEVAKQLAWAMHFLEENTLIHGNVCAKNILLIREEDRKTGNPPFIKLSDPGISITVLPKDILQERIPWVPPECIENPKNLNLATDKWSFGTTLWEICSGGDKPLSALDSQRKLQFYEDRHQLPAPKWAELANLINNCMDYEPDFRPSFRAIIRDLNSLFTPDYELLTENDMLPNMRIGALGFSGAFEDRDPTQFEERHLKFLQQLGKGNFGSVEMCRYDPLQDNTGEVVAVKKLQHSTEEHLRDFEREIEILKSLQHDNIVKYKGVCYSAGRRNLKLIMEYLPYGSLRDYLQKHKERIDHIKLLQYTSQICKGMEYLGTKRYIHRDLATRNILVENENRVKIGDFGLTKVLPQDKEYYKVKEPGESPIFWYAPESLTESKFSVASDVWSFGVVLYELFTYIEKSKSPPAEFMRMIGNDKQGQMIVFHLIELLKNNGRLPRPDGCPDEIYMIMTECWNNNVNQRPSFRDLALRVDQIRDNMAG
assay.protocol: phosphorylation enrichment, bacterial display (enrichment ratio); higher = better substrate or ligand; peptides without Tyr show the background;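 also: 11-residue human phosphosite peptides and single-mutation variants displayed on the E. coli surface, counted by deep sequencing, each peptide's frequency after selection divided by its frequency in the unselected input library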;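 also: frequency after pTyr selection over input frequency; kinase dosed for 20-30% of maximal phosphorylation in three min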
Number, no unit, nothing else.

{"columns": ["seq", "phosphorylation enrichment"],
 "data": [
  ["FTDGQYWIRGR [ACSF3_Y466_K462T]", 0.818],
  ["TYGVLYKARNK [CDK2_Y19_V18L]", 0.565],
  ["QLAPQYTYAQG [FLNA_Y1761]", 0.696],
  ["ALEHKYWALGQ [MAP1A_Y1555_Q1553H]", 0.709],
  ["QSPQLYKQMCI [DARS1_Y253]", 0.917]
]}

Find phosphorylation enrichment (Jak2 (UniProt O60674)) for the entry LLVVLYKYRCY [PSEN1_Y154]
0.974

Find phosphorylation enrichment (Jak2 (UniProt O60674)) for the entry DAAEDYAEGVC [DHODH_Y194_R199C]
1.19

Find phosphorylation enrichment (Jak2 (UniProt O60674)) for the entry AKAEICEMRPL [COX10_Y97_Y97C]
0.716

Find phosphorylation enrichment (Jak2 (UniProt O60674)) for the entry CEHRGSLYLAI [TEK_Y897_Y897S]
1.16

Find phosphorylation enrichment (Jak2 (UniProt O60674)) for the entry EKKKKYMLPLD [DNM2_Y563_E560K]
0.567

Find phosphorylation enrichment (Jak2 (UniProt O60674)) for the entry IKKLIYVHLVI [JAGN1_Y42]
0.982

Find phosphorylation enrichment (Jak2 (UniProt O60674)) for the entry EFKDAYKFAAD [BRDT_Y335_YF]
0.638

Find phosphorylation enrichment (Jak2 (UniProt O60674)) for the entry KPGVNYYFQVS
1.44

Find phosphorylation enrichment (Jak2 (UniProt O60674)) for the entry HICTAYKLVLA [DHCR24_Y190_E191K]
1.88

Find phosphorylation enrichment (Jak2 (UniProt O60674)) for the entry AKAFIYASHIV [ZNF573_Y229_G224A]
0.908

Find phosphorylation enrichment (Jak2 (UniProt O60674)) for the entry DFFDLYGGEKK [PTPN11_Y66_F71K_YF]
1.16
